- Experimental target: hα2C receptor (Homo sapiens)
- Construct: expressed in transfected cells
- Sequence (P18825 whole entry): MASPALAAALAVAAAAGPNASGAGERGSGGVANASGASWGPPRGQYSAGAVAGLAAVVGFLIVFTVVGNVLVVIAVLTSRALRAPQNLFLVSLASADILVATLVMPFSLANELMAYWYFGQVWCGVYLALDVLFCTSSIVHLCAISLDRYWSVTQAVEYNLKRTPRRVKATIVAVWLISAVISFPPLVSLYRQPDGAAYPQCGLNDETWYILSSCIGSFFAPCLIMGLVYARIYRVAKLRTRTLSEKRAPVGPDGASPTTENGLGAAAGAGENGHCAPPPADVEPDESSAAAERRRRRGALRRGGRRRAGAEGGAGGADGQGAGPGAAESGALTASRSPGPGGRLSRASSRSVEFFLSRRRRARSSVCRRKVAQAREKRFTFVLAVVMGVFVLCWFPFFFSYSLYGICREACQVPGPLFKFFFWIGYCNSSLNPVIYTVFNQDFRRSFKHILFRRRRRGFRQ
- Assay notes: Radioligand binding experiment for α2C-adrenergic receptor ([3H]-raulwolscine)
- Condition notes: hα2C (pIC50), CHO cell membranes with human α2C receptor, [3H]raulwolscine 1 nM
pIC50: −log10 of the molar value.
# pIC50 per record follows
Assay metric: pIC50

>>> df
                                   molecule  observed_value
0  C/C(=C\c1ccccc1)CN1CCN(CC2ON=C3c4cc5ccn(CCO)c5cc4OCC32)CC1 (stereo not drawn) [Compound 8]            8.70
1  C/C(=C\c1ccccc1)CN1CCN(CC2ON=C3c4cc5ccn(CCO)c5cc4OCC32)CC1 (single isomer, unassigned) [Compound 16]            7.30
2  C/C(=C\c1ccccc1)CN1CCN(CC2ON=C3c4cc5ccn(CCO)c5cc4OCC32)CC1 (single isomer, unassigned) [Compound 17]            8.70

----------
- Experimental target: hα2A receptor (Homo sapiens)
- Construct: expressed in transfected cells
- Sequence (P08913 1-465): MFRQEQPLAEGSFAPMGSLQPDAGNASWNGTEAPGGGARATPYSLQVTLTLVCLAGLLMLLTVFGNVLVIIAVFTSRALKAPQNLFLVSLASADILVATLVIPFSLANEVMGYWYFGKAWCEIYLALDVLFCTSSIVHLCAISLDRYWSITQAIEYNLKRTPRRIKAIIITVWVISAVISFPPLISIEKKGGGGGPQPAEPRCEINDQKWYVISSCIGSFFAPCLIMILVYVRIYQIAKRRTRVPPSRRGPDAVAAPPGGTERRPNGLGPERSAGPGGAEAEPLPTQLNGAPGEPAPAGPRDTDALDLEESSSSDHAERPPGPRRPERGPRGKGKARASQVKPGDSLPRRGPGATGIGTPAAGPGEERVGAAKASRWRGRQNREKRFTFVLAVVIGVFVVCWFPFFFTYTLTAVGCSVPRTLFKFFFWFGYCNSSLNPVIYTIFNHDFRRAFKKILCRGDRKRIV
- Assay notes: Radioligand binding experiment for α2A-adrenergic receptor ([3H]-raulwolscine)
- Condition notes: CHO cell membranes with human α2A receptor, [3H]raulwolscine 1 nM
- Experimental: In general, a low concentration of a radioligand with a high binding affinity for a particular receptor or transporter is incubated with a sample of a tissue preparation enriched in a particular receptor or transporter or with a preparation of cells expressing cloned human receptors in a buffered medium. […] When equilibrium of binding is reached, the receptor bound radioactivity is separated from the non-bound radioactivity, and the receptor- or transporter-bound activity is counted. […]
# cutoff 8 applies to hα2A (pIC50); >= gives MET, < gives NOT MET

>>> print(df.to_string())
                                   compound           experimental_target  assigned_label
0  c1ccc2cc(CN3CCN(CC4ON=C5c6cc7cc[nH]c7cc6OCC54)CC3)ccc2c1 (racemic) [Compound 4]  hα2A receptor (Homo sapiens)         NOT MET
1  Clc1ccc(CN2CCN(CC3ON=C4c5cc6cc[nH]c6cc5OCC43)CC2)cc1 (racemic) [Compound 5]  hα2A receptor (Homo sapiens)         NOT MET
2  C/C(=C\c1cccc(F)c1)CN1CCN(CC2ON=C3c4ccncc4OCC32)CC1 (racemic) [Compound 20]  hα2A receptor (Homo sapiens)             MET

----------
- Experimental target: h5-HT transporter (Homo sapiens)
- Construct: Human platelet membranes (Oceanix Biosciences Corporation, Hanover, Md., USA) were thawed; tissue Oceanix Biosciences Corporation, Hanover, Md., USA; host or cells: human platelet membranes
- Assay notes: Radioligand binding experiment for 5-HT transporter ([3H]paroxetine)
- Condition notes: 5-HTT (pIC50), human platelet membranes, [3H]paroxetine 0.5 nM
So basically: is IC50 under 5 nM? Then Met. Not under? Then Not met.

In [3]: df
Out[3]:
                                   compound  assigned_label
0  C/C(=C\c1ccccc1)CN1CCN(C[C@@H]2ON=C3c4cc5cc[nH]c5cc4OC[C@H]32)CC1 (relative stereo)             Met
1  CC(=O)n1ccc2cc3c(cc21)OCC1C3=NOC1CN1CCN(C/C(C)=C/c2ccccc2)CC1 (stereo not drawn)         Not met
2  COC(=O)Cn1ccc2cc3c(cc21)OCC1C3=NOC1CN1CCN(C/C(C)=C/c2ccccc2)CC1 (stereo not drawn)             Met
3  C/C(=C\c1ccccc1)CN1CCN(CC2ON=C3c4cc5ccn(CCO)c5cc4OCC32)CC1 (single isomer, unassigned) [Compound 17]         Not met
4  C/C(=C\c1ccccc1)CN1CCN(CC2ON=C3c4cc5ccn(CCO)c5cc4OCC32)CC1 (stereo not drawn) [Compound 8]             Met

----------
- Experimental target: h5-HT transporter (Homo sapiens, UniProt P31645)
- Construct: Human platelet membranes (Oceanix Biosciences Corporation, Hanover, Md., USA) were thawed; tissue Oceanix Biosciences Corporation, Hanover, Md., USA; host or cells: human platelet membranes
- Sequence (P31645 whole entry): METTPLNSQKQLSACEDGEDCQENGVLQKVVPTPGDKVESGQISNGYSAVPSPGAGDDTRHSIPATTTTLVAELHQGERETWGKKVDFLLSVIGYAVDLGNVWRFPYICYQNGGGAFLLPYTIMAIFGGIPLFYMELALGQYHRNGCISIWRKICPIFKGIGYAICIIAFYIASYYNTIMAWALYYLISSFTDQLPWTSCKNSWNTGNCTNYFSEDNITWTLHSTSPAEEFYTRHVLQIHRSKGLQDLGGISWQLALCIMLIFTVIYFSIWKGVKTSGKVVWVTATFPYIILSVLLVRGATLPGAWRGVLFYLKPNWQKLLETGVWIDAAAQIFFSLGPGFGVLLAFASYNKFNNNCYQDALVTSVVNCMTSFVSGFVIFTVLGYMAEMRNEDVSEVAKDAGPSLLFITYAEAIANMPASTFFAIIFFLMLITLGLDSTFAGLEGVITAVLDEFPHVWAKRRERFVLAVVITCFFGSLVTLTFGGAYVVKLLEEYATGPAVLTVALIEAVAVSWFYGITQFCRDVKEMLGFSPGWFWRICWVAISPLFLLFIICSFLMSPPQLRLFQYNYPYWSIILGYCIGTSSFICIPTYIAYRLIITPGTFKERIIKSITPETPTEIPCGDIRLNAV
- Assay notes: Radioligand binding experiment for 5-HT transporter ([3H]paroxetine)
- Condition notes: human platelet membranes, [3H]paroxetine 0.5 nM
# 5-HTT (pIC50) per record follows
Assay metric: 5-HTT (pIC50)

>>> print(df.to_string())
                                   molecule  observed_value
0  C/C(=C\c1ccccc1)CN1CCN(CC2ON=C3c4cc5ccn(C(=O)C6CC6)c5cc4OCC32)CC1 (racemic)             7.7
1  C/C(=C\c1cccc(F)c1)CN1CCN(CC2ON=C3c4cc5cc[nH]c5cc4OCC32)CC1 (racemic)             8.3
2  Clc1ccc(CN2CCN(CC3ON=C4c5cc6cc[nH]c6cc5OCC43)CC2)cc1 (racemic)             7.8
3  COC(=O)n1ccc2cc3c(cc21)OCC1C3=NOC1CN1CCN(C/C(C)=C/c2ccccc2)CC1 (racemic)             7.9

----------
- Experimental target: h5-HT transporter (Homo sapiens, UniProt P31645)
- Construct: Human platelet membranes (Oceanix Biosciences Corporation, Hanover, Md., USA) were thawed; tissue Oceanix Biosciences Corporation, Hanover, Md., USA; host or cells: human platelet membranes
- Assay notes: Radioligand binding experiment for 5-HT transporter ([3H]paroxetine)
- Condition notes: human platelet membranes, [3H]paroxetine 0.5 nM
# cutoff 8 applies to 5-HTT (pIC50); >= gives y, < gives n

In [3]: df
Out[3]:
                                   compound  assigned_label
0  C/C(=C\c1ccc(F)cc1)CN1CCN(CC2ON=C3c4ccncc4OCC32)CC1.O=C(O)C(=O)O (racemic) [Compound 21]               n
1  C/C(=C\c1cccc(F)c1)CN1CCN(CC2ON=C3c4ccncc4OCC32)CC1 (racemic) [Compound 20]               n
2  c1ccc2cc(CN3CCN(CC4ON=C5c6cc7cc[nH]c7cc6OCC54)CC3)ccc2c1 (racemic) [Compound 4]               y
3  C/C(=C\c1ccccc1)CN1CCN(CC2ON=C3c4cc5ccn(CCO)c5cc4OCC32)CC1 (single isomer, unassigned) [Compound 16]               n
4  CC(=CCN1CCN(CC2ON=C3c4cc5cc[nH]c5cc4OCC32)CC1)c1ccccc1 (racemic) [Compound 6]               y
5  COCC(=O)n1ccc2cc3c(cc21)OCC1C3=NOC1CN1CCN(C/C(C)=C/c2ccccc2)CC1 (racemic) [Compound 14]               y

----------
# IC50 per record follows
- Experimental target: hα2A receptor (Homo sapiens, UniProt P08913)
- Construct: expressed in transfected cells
- Assay notes: Radioligand binding experiment for α2A-adrenergic receptor ([3H]-raulwolscine)
- Condition notes: CHO cell membranes with human α2A receptor, [3H]raulwolscine 1 nM; read-out: hα2A (pIC50) (converted)
Where a name gives a salt, the structure may show the parent alone.
Assay metric: IC50 (nM)

In [3]: df
Out[3]:
                                   compound                       experimental_target  assay_metric  unit_text  observed_value
0  C/C(=C\c1ccc(F)cc1)CN1CCN(CC2ON=C3c4sccc4OCC32)CC1 (stereo not shown)  hα2A receptor (Homo sapiens, UniProt P08913)          IC50         nM               2
1  c1ccc2cc(CN3CCN(CC4ON=C5c6ccncc6OCC54)CC3)ccc2c1 (stereo not shown)  hα2A receptor (Homo sapiens, UniProt P08913)          IC50         nM              10
2  C/C(=C\c1ccc(F)cc1)CN1CCN(CC2ON=C3c4ncccc4OCC32)CC1 (stereo not shown)  hα2A receptor (Homo sapiens, UniProt P08913)          IC50         nM            6.31
3  C/C(=C\c1ccccc1)CN1CCN(CC2ON=C3c4cccnc4OCC32)CC1 (stereo not shown) [Compound 22, oxalate salt]  hα2A receptor (Homo sapiens, UniProt P08913)          IC50         nM             631

The origin of these recorded values is patent US7501418B2.
